# procedure details: Serum esketamine levels (LC-MS/MS) after intranasal esketamine 56 mg in TRD patients
# condition set: human, serum, other: intranasal, 56 mg, AUC value, single patient, serum, 0-72 h, group 3 patient also on valproate
property label: AUC (ng·h/mL)
Number in ng·h/mL, nothing else.

QUERY: Tell me the measured AUC of CN[C@]1(c2ccccc2Cl)CCCCC1=O [esketamine, (S)-isomer of ketamine] , please.
RESULT: 298

====

# procedure details: Serum esketamine levels (LC-MS/MS) after intranasal esketamine 56 mg in TRD patients
# condition set: human, serum, other: intranasal, 56 mg, AUC value, average of group, serum, 0-72 h, group 3 (venlafaxine/desvenlafaxine)
property label: AUC (ng·h/mL)
Enter your answer as a number in ng·h/mL; do not include the unit.

QUERY: Any idea what AUC was measured for CN[C@]1(c2ccccc2Cl)CCCCC1=O [esketamine, (S)-isomer of ketamine] ?
RESULT: 857
